ASSAY_DETAILS: Apparent volume of distribution was obtained after intravenous administration of 2.7 mg/kg of drug in male Dawley rats
Type: ADME, organism-based
Set-up: dose 2.7 mg/kg, route intravenous
MEASUREMENT_CONDITIONS: Sprague-Dawley, rat, in vivo, read-out: Vss
MEASURED_ATTRIBUTE: Vd (L/kg)
Your answer should be a plain number; it is taken to be in L/kg.

Request: I would be grateful if you could share the reported Vd for O=c1c2c(oc(O)c1C(c1cccc(NS(=O)(=O)c3ccc(F)cc3)c1)C1CC1)CCCCCC2 (stereo unspecified) .
Response: 0.16

###

TGT: Human immunodeficiency virus type 1 protease (Human immunodeficiency virus 1, UniProt Q72874)
The reader will find reported Ki values listed item by item below.
Your answer should be a plain number; it is taken to be in nM.

MOLECULE	Ki [nM]
O=c1c2c(oc(O)c1C(c1cccc(NS(=O)(=O)c3ccccc3Cl)c1)C1CC1)CCCCCC2 (stereo not given)	9.3
O=c1c2c(oc(O)c1C(c1cccc(NS(=O)(=O)c3cscn3)c1)C1CC1)CCCCCC2 (stereo not given)	1.6
O=c1c2c(oc(O)c1C(c1cccc(NS(=O)(=O)c3cccc4cccnc34)c1)C1CC1)CCCCCC2 (stereo not given)	1.9

We now examine a further molecule.
Request: I would be grateful if you could share the reported Ki for CCCS(=O)(=O)Nc1cccc(C(c2c(O)c3c(oc2=O)CCCCCC3)C2CC2)c1 (stereo not given) .
Response: 4

Reference source for all entries: ChEMBL document CHEMBL1129987
